- System: MDA-MB-231 breast cancer cells
- Assay Remarks: Wound healing assay (scratch method), cell migration
- Assay type: cell-based, human
- Conditions: Homo sapiens; percent relative migration at 10 μM after 24 h, relative to control, MDA-MB-231
Measurement Kind: activity at 10 µM (%)
Numbers only; they are read as %.

Use the examples below as a reference point.
CCn1c2ccccc2c2cc(Nc3ncccc3NC(=O)c3cccnc3)ccc21	81
CCn1c2ccccc2c2cc(Nc3ccnc(NCCCN4CCOCC4)n3)ccc21 (racemic)	67
CCn1c2ccccc2c2cc(Nc3ncccc3C(=O)Nc3cc(OC)c(OC)c(OC)c3)ccc21	92
CCn1c2ccccc2c2cc(NC(=O)c3cccnc3NCCCN3CCOCC3)ccc21	76
CCn1c2ccccc2c2cc(Nc3ncccc3NCC(=O)N3CCOCC3)ccc21	81

Q: Please provide the recorded activity at 10 µM for CCn1c2ccccc2c2cc(Nc3ncccc3C(=O)NCCCN3CCOCC3)ccc21 , tested on MDA-MB-231 breast cancer cells.
A: 99

Q: Please provide the recorded activity at 10 µM for CCn1c2ccccc2c2cc(NC(=O)c3cccnc3N3CCN(c4ccccc4)CC3)ccc21 , tested on MDA-MB-231 breast cancer cells.
A: 99
